FYI, the data here is from ChEMBL document CHEMBL3259543.

biological target: Protease (Human immunodeficiency virus 1); experiment: Inhibition of purified HIV-1 protease using [Arg-Glu(EDANS)-Ser-Gin-Asn-Tyr-Ile-Val-Gin-Lys(dabcyl)-Arg) as fluorogenic substrate at 0.08 ng/ml by fluorescence assay
Sequence (Q9YQ12 whole entry): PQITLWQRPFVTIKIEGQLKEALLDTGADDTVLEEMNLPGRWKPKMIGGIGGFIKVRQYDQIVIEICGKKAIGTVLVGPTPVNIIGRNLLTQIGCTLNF
Task for the reader: assign each of the following compounds its reported Inhibition.
Kindly format the answer as number then unit.

Which Inhibition reading was recorded for the compound CC(C)CN(C[C@@H](O)[C@H](Cc1ccccc1)NC(=O)O[C@H]1CO[C@H]2[C@@H]1OC[C@H]2O)S(=O)(=O)c1ccc(N)cc1 ?
33.7%

Which Inhibition reading was recorded for the compound COc1ccc(S(=O)(=O)N(CC(C)C)C[C@@H](O)[C@H](Cc2ccccc2)NC(=O)O[C@H]2CO[C@H]3[C@@H]2OC[C@H]3O[N+](=O)[O-])cc1 ?
53.7%

Which Inhibition reading was recorded for the compound CC(C)CN(C[C@@H](O)[C@H](Cc1ccccc1)NC(=O)O[C@H]1CO[C@H]2[C@@H]1OC[C@H]2O[N+](=O)[O-])S(=O)(=O)c1ccc(N)cc1 ?
47.2%

Which Inhibition reading was recorded for the compound COc1ccc(S(=O)(=O)N(CC(C)C)C[C@@H](O)[C@H](Cc2ccccc2)NC(=O)O[C@H]2CO[C@H]3[C@@H]2OC[C@H]3OC)cc1 ?
53.7%

Which Inhibition reading was recorded for the compound COc1ccc(S(=O)(=O)N(CC(C)C)C[C@@H](O)[C@H](Cc2ccccc2)NC(=O)O[C@H]2CO[C@H]3[C@@H]2OC[C@H]3O)cc1 ?
51.4%

Which Inhibition reading was recorded for the compound CO[C@@H]1CO[C@H]2[C@@H]1OC[C@@H]2OC(=O)N[C@@H](Cc1ccccc1)[C@H](O)CN(CC(C)C)S(=O)(=O)c1ccc(N)cc1 ?
40.6%
